Biological target: T1, chemokine receptor 5 (CCR5) (human, UniProt P51681 1-352)
T1 construct: whole, on cells
T1 sequence (P51681 whole entry): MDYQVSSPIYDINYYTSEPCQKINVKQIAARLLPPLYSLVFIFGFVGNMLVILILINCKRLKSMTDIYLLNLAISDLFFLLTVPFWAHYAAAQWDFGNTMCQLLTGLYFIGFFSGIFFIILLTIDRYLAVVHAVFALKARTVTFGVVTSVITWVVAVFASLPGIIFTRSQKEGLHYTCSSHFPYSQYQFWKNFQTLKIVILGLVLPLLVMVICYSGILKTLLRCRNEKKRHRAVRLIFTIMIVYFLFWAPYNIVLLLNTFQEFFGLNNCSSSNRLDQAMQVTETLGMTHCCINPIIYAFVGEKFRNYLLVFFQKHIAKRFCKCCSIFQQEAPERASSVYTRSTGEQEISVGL
Experiment: competition with 125I-MIP-1 alpha, membranes of CHO-K1 cells expressing CCR5, filtration, one site competition model; 125I-MIP 1-alpha tracer, CCR5 membranes
observation-type: IC50 (nM)
Give the value, in units of nM, as a plain number.

Reported IC50 for processed human chemokine PHC-1 (HCC-1[9-74]) (ligand, Purified from human hemofiltrate or made by tryptic digestion of HCC-1 (1-74)) GPYHPSECCFTYTTYKIPRQRIMDYYETNSQCSKPGIVFITKRGHSVCTNPSDKWVQDYIKDMKEN : what is it? 0.04
